B1: Ankyrin repeat and SOCS box protein 14, residues 532 to 572; numbered along this chain, A6NK59 (parent)
chain: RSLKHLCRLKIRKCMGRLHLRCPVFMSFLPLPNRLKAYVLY

# Variants of: B1
# TEST_SUMMARY: abundance fitness (aPCA) (normalised: wild type 0, dead -1); higher = more abundant; growth selection in yeast, the domain comes from the species named
# CONDITION_LABEL: Homo sapiens
Range-based classes on measured abundance fitness: c1: < -0.2; c2: ≥ -0.2 and < 0.02; c3: ≥ 0.02

# SEQUENCE_TEXT, ASSIGNED_LABEL
measured = [
    ("RSLKHLVRLKIRKCMGRLHLRCPVFMSFLPLPNRLKAYVLY", "c3"),
    ("RSLKHLCRLKIRKCMGRLHLPCPVFMSFLPLPNRLKAYVLY", "c1"),
    ("RSLKHLCRLKIRKCMGRLHLRCPEFMSFLPLPNRLKAYVLY", "c3"),
    ("RSLKHCCRLKIRKCMGRLHLRCPVFMSFLPLPNRLKAYVLY", "c3"),
    ("RSLKHLCRLKIRKCTGRLHLRCPVFMSFLPLPNRLKAYVLY", "c1"),
    ("RSLKHLCRLKIRKCMGRLHLRCPVFLSFLPLPNRLKAYVLY", "c3"),
    ("RSLKHLCRLKIRKCMGRLHLRCPVFMSFLPLCNRLKAYVLY", "c3"),
    ("RSLKHLCRLKIRKCMGRTHLRCPVFMSFLPLPNRLKAYVLY", "c1"),
    ("RSLKHLCRLKIRKCMGRLHLRCPVFMSFLPLPNRLKAYVTY", "c1"),
    ("RSLKHLCRLKIRKCMGRMHLRCPVFMSFLPLPNRLKAYVLY", "c2"),
    ("RSLKHLCRLKIRKCMGRLHLRCPVFMTFLPLPNRLKAYVLY", "c1"),
    ("RSLKHKCRLKIRKCMGRLHLRCPVFMSFLPLPNRLKAYVLY", "c3"),
    ("RSLKHLCRLKIRKCMGRLHLRCPQFMSFLPLPNRLKAYVLY", "c3"),
    ("RSLKHLCRLKIRYCMGRLHLRCPVFMSFLPLPNRLKAYVLY", "c2"),
    ("RALKHLCRLKIRKCMGRLHLRCPVFMSFLPLPNRLKAYVLY", "c1"),
    ("TSLKHLCRLKIRKCMGRLHLRCPVFMSFLPLPNRLKAYVLY", "c1"),
    ("RSLKHLCRLKIRKCMGRLHLVCPVFMSFLPLPNRLKAYVLY", "c2"),
    ("RSLKHLCRLKIRKCMGPLHLRCPVFMSFLPLPNRLKAYVLY", "c2"),
    ("RSLKHLCRLKIRKCMGRLRLRCPVFMSFLPLPNRLKAYVLY", "c2"),
    ("RSLKGLCRLKIRKCMGRLHLRCPVFMSFLPLPNRLKAYVLY", "c1"),
    ("RSLKHLCRLKIRKCMGRLHLRCPVFMSNLPLPNRLKAYVLY", "c2"),
    ("RSLKHLCRLKIRKCMGRLHLRCPVFMSFLPLPNRLKALVLY", "c1"),
    ("RSLKHLCTLKIRKCMGRLHLRCPVFMSFLPLPNRLKAYVLY", "c2"),
    ("RSLKHLIRLKIRKCMGRLHLRCPVFMSFLPLPNRLKAYVLY", "c3"),
    ("RSLKHLCRLKIRKCMGRLHLRCPVFMSFLPLPNRLNAYVLY", "c1"),
]
